assay: Cytotoxicity against HBV infected human HepDE19 cells assessed as decrease in cell viability after 5 days by CCK8 assay; assay type: cell-based
Record form. Attribute: CC50 at 120 h. Fill in for each entry.
Numbers only; they are read as µM.

Lookup: Consider the molecule CCOC(=O)C1=C(CN2CCOC[C@H]2C(=O)O)NC(c2nccs2)=N[C@H]1c1ccc(F)c(F)c1Br . State its measured CC50 at 120 h.
Found: 51

Lookup: Consider the molecule COC(=O)C1=C(CN2CCOC[C@H]2C(=O)O)NC(c2nccs2)=N[C@H]1c1ccc(F)c(F)c1Br . State its measured CC50 at 120 h.
Found: 80

Lookup: Consider the molecule COC(=O)C1=C(CN2CCO[C@H](C(C)C)[C@H]2C(=O)O)NC(c2nccs2)=N[C@H]1c1ccc(F)cc1Cl . State its measured CC50 at 120 h.
Found: 81

Lookup: Consider the molecule COC(=O)C1=C(CN2CCOCC2CO)NC(c2nccs2)=N[C@H]1c1ccc(F)cc1Cl (some centres undefined) . State its measured CC50 at 120 h.
Found: 74

Lookup: Consider the molecule COC(=O)C1=C(CN2CCSCC2C(=O)O)NC(c2nccs2)=N[C@H]1c1ccc(F)cc1Cl (single isomer, unassigned) . State its measured CC50 at 120 h.
Found: 60

Lookup: Consider the molecule CCOC(=O)C1=C(CN2CCOC[C@H]2C(=O)O)NC(c2nccs2)=N[C@H]1c1ccc(F)c(F)c1C . State its measured CC50 at 120 h.
Found: 97

Lookup: Consider the molecule CC(C)(C)OC(=O)C1=C(CN2CCOC[C@H]2C(=O)O)NC(c2nccs2)=N[C@H]1c1ccc(F)cc1Cl . State its measured CC50 at 120 h.
Found: 41

Lookup: Consider the molecule CCOC(=O)C1=C(CN2CCOC[C@H]2C(=O)O)NC(c2nccs2)=N[C@H]1c1ccc(F)cc1 . State its measured CC50 at 120 h.
Found: 62

Lookup: Consider the molecule CC(C)OC(=O)C1=C(CN2CCOC[C@H]2C(=O)O)NC(c2nccs2)=N[C@H]1c1ccc(F)cc1Cl . State its measured CC50 at 120 h.
Found: 72

Lookup: Consider the molecule COC(=O)C1=C(CN2CCOC[C@H]2CNS(C)(=O)=O)NC(c2nccs2)=N[C@H]1c1ccc(F)cc1Cl . State its measured CC50 at 120 h.
Found: 88

Lookup: Consider the molecule CCOC(=O)C1=C(CN2CCOC[C@H]2C(=O)O)NC(c2nccs2)=N[C@H]1c1ccc(Br)cc1Cl . State its measured CC50 at 120 h.
Found: 31

====

system: Hepatitis B virus; experiment: Antiviral activity against HBV infected in human HepG2(2.2.15) cells assessed as decrease in HBV genome replication after 5 days by qPCR method; format: functional, cell-based; details: HepG2 2.2.15, 120 h
Response field label takes yes when EC50 is strictly below 10 nM and no in all other cases.

Lookup: For COC(=O)C1=C(CN2CCOC[C@H]2C(=O)O)NC(c2nc(C(F)(F)F)cs2)=N[C@H]1c1ccc(F)cc1Cl , is the recorded EC50 below the cut-off of 10 nM?
Found: yes

Lookup: For COC(=O)C1=C(CN2CCOC[C@H]2C(=O)O)NC(c2nccs2)=N[C@H]1c1ccc(F)cc1C1CC1 , is the recorded EC50 below the cut-off of 10 nM?
Found: no

Lookup: For CCOC(=O)C1=C(CN2CCOC[C@H]2C(=O)O)NC(c2nccs2)=N[C@H]1c1ccc(F)cc1 , is the recorded EC50 below the cut-off of 10 nM?
Found: no

Lookup: For CCOC(=O)C1=C(CN2CCOC[C@H]2C(=O)O)NC(c2nccs2)=N[C@H]1c1cccc(Cl)c1Cl , is the recorded EC50 below the cut-off of 10 nM?
Found: no

Lookup: For COC(=O)C1=C(CN2CCOC[C@H]2C(=O)O)NC(c2nccs2)=N[C@H]1c1ccc(F)c(F)c1Cl , is the recorded EC50 below the cut-off of 10 nM?
Found: yes

Lookup: For COC(=O)C1=C(CN2CCNC[C@H]2C(=O)O)NC(c2nccs2)=N[C@H]1c1ccc(F)cc1Cl , is the recorded EC50 below the cut-off of 10 nM?
Found: no

Lookup: For COC(=O)C1=C(CN2CCOC[C@H]2C(=O)O)NC(c2nccs2)=N[C@H]1c1ccc(C)cc1Cl , is the recorded EC50 below the cut-off of 10 nM?
Found: no

Lookup: For COC(=O)C1=C(CN2CCO[C@H](C(C)C)[C@H]2C(=O)O)NC(c2nccs2)=N[C@H]1c1ccc(F)cc1Cl , is the recorded EC50 below the cut-off of 10 nM?
Found: yes

Lookup: For COC(=O)C1=C(CN2CCOC[C@H]2CC(=O)O)NC(c2nccs2)=N[C@H]1c1ccc(F)cc1Cl , is the recorded EC50 below the cut-off of 10 nM?
Found: no

Lookup: For COC(=O)C1=C(CN2CCOC[C@H]2C(=O)O)NC(c2nccs2)=N[C@H]1c1ccc(C(F)(F)F)cc1Cl , is the recorded EC50 below the cut-off of 10 nM?
Found: no

Lookup: For CCOC(=O)C1=C(CN2CCOC[C@H]2C(=O)O)NC(c2nccs2)=N[C@H]1c1ccc(F)c(F)c1Cl , is the recorded EC50 below the cut-off of 10 nM?
Found: yes

Lookup: For COC(=O)C1=C(CN2CCO[C@H](C)[C@H]2C(=O)O)NC(c2nccs2)=N[C@H]1c1ccc(F)cc1Cl , is the recorded EC50 below the cut-off of 10 nM?
Found: yes

Lookup: For CCOC(=O)C1=C(CN2CCOC[C@H]2C(=O)O)NC(c2nccs2)=N[C@H]1c1cccc(F)c1Cl , is the recorded EC50 below the cut-off of 10 nM?
Found: yes

Lookup: For COC(=O)C1=C(CN2CCOC[C@H]2C(=O)O)NC(c2nccs2)=N[C@H]1c1cccc(F)c1Cl , is the recorded EC50 below the cut-off of 10 nM?
Found: yes

Lookup: For N#CC1=C(CN2CCOC[C@H]2C(=O)O)NC(c2nccs2)=N[C@H]1c1ccc(F)cc1Cl , is the recorded EC50 below the cut-off of 10 nM?
Found: no

Lookup: For CCOC(=O)C1=C(CN2CCOC[C@H]2C(=O)O)NC(c2nccs2)=N[C@H]1c1ccc(OC)cc1 , is the recorded EC50 below the cut-off of 10 nM?
Found: no

Lookup: For COCCOC(=O)C1=C(CN2CCOC[C@H]2C(=O)O)NC(c2nccs2)=N[C@H]1c1ccc(F)cc1Cl , is the recorded EC50 below the cut-off of 10 nM?
Found: no

Lookup: For COC(=O)C1=C(CN2CCOCC2CO)NC(c2nccs2)=N[C@H]1c1ccc(F)cc1Cl (some centres undefined) , is the recorded EC50 below the cut-off of 10 nM?
Found: yes

Lookup: For COC(=O)C1=C(CN2CCSCC2C(=O)O)NC(c2nccs2)=N[C@H]1c1ccc(F)cc1Cl (single isomer, unassigned) , is the recorded EC50 below the cut-off of 10 nM?
Found: no

Lookup: For COC(=O)C1=C(CN2CCOC[C@H]2C(=O)O)NC(c2ncccn2)=N[C@H]1c1ccc(F)cc1Cl , is the recorded EC50 below the cut-off of 10 nM?
Found: no

Lookup: For CCOC(=O)C1=C(CN2CCOC[C@H]2C(=O)O)NC(c2nccs2)=N[C@H]1c1ccc(F)cc1Cl , is the recorded EC50 below the cut-off of 10 nM?
Found: yes

Lookup: For CCOC(=O)C1=C(CN2CCOC[C@H]2C(=O)O)NC(c2nccs2)=N[C@H]1c1cccc(C#N)c1Cl , is the recorded EC50 below the cut-off of 10 nM?
Found: no

Lookup: For COC(=O)C1=C(CN2CCOC[C@H]2C(=O)O)NC(c2nccs2)=N[C@H]1c1ccc(F)c(F)c1Br , is the recorded EC50 below the cut-off of 10 nM?
Found: yes

Lookup: For CCOC(=O)C1=C(CN2CCOC[C@H]2C(=O)O)NC(c2nccs2)=N[C@H]1c1ccc(F)c(F)c1Br , is the recorded EC50 below the cut-off of 10 nM?
Found: yes

Lookup: For CCOC(=O)C1=C(CN2CCOC[C@H]2C(=O)O)NC(c2nccs2)=N[C@H]1c1ccc(C)cc1Cl , is the recorded EC50 below the cut-off of 10 nM?
Found: yes

Lookup: For COC(=O)C1=C(C)NC(c2nccs2)=N[C@H]1c1ccc(F)cc1Cl , is the recorded EC50 below the cut-off of 10 nM?
Found: no

Lookup: For COC(=O)C1=C(CN2CCOC[C@H]2C(=O)O)NC(c2nccs2)=N[C@H]1c1ccc(F)cc1C(F)(F)F , is the recorded EC50 below the cut-off of 10 nM?
Found: no

Lookup: For COC(=O)C1=C(CN2CCOC[C@H]2C(=O)O)NC(c2nccs2)=N[C@H]1c1ccc(F)cc1C , is the recorded EC50 below the cut-off of 10 nM?
Found: yes

Lookup: For CCOC(=O)C1=C(CN2CCOC[C@H]2C(=O)O)NC(c2nccs2)=N[C@H]1c1ccc(C#N)cc1 , is the recorded EC50 below the cut-off of 10 nM?
Found: no

Lookup: For CCOC(=O)C1=C(CN2CCOC[C@H]2C(=O)O)NC(c2nccs2)=N[C@H]1c1ccc(F)cc1C , is the recorded EC50 below the cut-off of 10 nM?
Found: yes

Lookup: For COC(=O)C1=C(CN2CCOC[C@H]2C(=O)OC)NC(c2nccs2)=N[C@H]1c1ccc(F)cc1Cl , is the recorded EC50 below the cut-off of 10 nM?
Found: yes

Lookup: For CCOC(=O)C1=C(CN2CCOC[C@H]2C(=O)O)NC(c2nccs2)=N[C@H]1c1ccc(F)cc1F , is the recorded EC50 below the cut-off of 10 nM?
Found: no

Lookup: For COC(=O)C1=C(C)NC(c2nccs2)=NC1c1cccc(C(=O)O)c1 (centres undefined) , is the recorded EC50 below the cut-off of 10 nM?
Found: no

Lookup: For CCOC(=O)C1=C(CN2CCOC[C@H]2C(=O)O)NC(c2nccs2)=N[C@H]1c1ccccc1Cl , is the recorded EC50 below the cut-off of 10 nM?
Found: no
